Value source: ChEMBL document CHEMBL1961873

Target: Tyrosine-protein kinase receptor TYRO3 (Homo sapiens)
Sequence (whole entry): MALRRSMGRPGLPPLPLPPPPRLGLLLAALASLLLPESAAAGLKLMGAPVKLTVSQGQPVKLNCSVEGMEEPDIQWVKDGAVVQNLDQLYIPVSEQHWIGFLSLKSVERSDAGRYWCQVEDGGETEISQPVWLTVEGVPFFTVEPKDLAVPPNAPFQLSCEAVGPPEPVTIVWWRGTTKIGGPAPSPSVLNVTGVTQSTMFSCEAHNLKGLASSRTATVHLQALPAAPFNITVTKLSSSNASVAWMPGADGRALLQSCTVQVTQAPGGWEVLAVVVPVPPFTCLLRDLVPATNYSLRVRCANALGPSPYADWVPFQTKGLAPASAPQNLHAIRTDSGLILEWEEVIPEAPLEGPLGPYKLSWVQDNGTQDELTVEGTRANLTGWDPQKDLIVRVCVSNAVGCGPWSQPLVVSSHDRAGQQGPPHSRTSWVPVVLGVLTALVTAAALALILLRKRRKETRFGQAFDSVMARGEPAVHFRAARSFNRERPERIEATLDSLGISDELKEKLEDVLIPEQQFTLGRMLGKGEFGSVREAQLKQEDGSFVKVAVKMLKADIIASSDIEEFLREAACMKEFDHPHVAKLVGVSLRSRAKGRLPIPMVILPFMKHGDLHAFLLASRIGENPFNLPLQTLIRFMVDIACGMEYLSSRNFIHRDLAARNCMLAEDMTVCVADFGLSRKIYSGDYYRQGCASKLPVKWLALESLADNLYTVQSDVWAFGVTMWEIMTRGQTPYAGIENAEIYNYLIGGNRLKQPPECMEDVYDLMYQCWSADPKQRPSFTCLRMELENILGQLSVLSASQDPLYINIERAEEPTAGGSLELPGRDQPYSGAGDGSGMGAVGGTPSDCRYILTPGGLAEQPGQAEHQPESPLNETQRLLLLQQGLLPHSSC
Conditions: at 1 µM
Description: GSK_PKIS: TYRO3 mean inhibition at 1 uM [Nanosyn]
What inhibition was measured for each of the following?
# value in %; strip the unit string

So what does the record say about inhibition for O=C1Nc2ccccc2/C1=C/Nc1ccc2[nH]c(=O)[nH]c2c1 ?
21.6

Sample Cc1ccc2c(-c3ccnc(Nc4cccc(C(F)(F)F)c4)n3)c(-c3ccccc3)nn2n1 — what was its inhibition?
17.5

For the compound Cc1cc(-c2ccccn2)cc(C)c1/C=C/c1cncc(-c2nn[nH]n2)c1 , what inhibition is on record?
0.93

Would you mind telling me what inhibition value was observed for COc1cccc(-n2ncc3c(N/N=C/c4ccc(S(C)(=O)=O)cc4)ncnc32)c1 ?
22.4

Entry under review: Nc1nccc(C#Cc2cncnc2Nc2ccc(OCc3cccc(F)c3)c(Cl)c2)n1 . Reported inhibition?
3.66

// returns reported inhibition for input C[C@@H](Oc1cc(-n2cnc3ccc(OCC4CCN(C)CC4)cc32)sc1C(N)=O)c1ccccc1C(F)(F)F
6.92

Need inhibition, item Cc1ccc(O)cc1Nc1ccnc2ccc(S(C)(=O)=O)cc12
19.1

Look at this compound and give its reported inhibition. CN1CCN(C(=O)c2ccc(NC(=O)Nc3ccc(N(C)c4ccnc(Nc5ccc(CS(C)(=O)=O)cc5)n4)cc3)cc2)CC1
21.9

I have this compound here, CCCN1CCCC(c2ccc(Nc3nc(Nc4cc(F)ccc4C(N)=O)c4cc[nH]c4n3)c(OC)c2)C1 (centres undefined) , and I need its recorded inhibition.
7.19

Consider the compound shown here: Cc1ccc(Nc2ccnc(Nc3cccc(C(N)=O)c3)n2)cc1O What is its recorded inhibition?
55

Recorded inhibition of COc1cc(/C=N/Nc2ncnc3c2cnn3C(C)C)ccc1O , please.
25.9

Need inhibition of CN(C)c1cc2c(Nc3ccc4c(cnn4Cc4ccccc4)c3)ncnc2cn1 , thanks.
7.51

// query inhibition value for entry Oc1cccc(-c2nc(-c3ccccc3)[nH]c2-c2ccncc2)c1
9.74

Requested field: inhibition. Item: NS(=O)(=O)c1ccc(NC=C2C(=O)Nc3ccc4ncsc4c32)cc1
42.4

Reported inhibition for NS(=O)(=O)c1ccc(N/N=C2\C(=O)Nc3ccc(Cl)cc32)cc1 : what is it?
5.46

What measured inhibition goes with CN(C)C(=O)O[C@@H]1CN[C@@H](C#Cc2cc3ncnc(Nc4ccc(OCc5cccc(F)c5)c(Cl)c4)c3s2)C1 ?
-0.16

Fill in the blank: the reported inhibition of COC(=O)c1ccc2c(c1)C(=Cc1cc(Br)c(O)c(Br)c1)C(=O)N2 is ____.
12.4

Name the recorded inhibition for CCn1c(-c2nonc2N)nc2ccc(F)cc21 .
5.61

Consider the compound FC(F)(F)c1ccc(-c2nn3ncccc3c2-c2ccnc(Nc3ccc4c(c3)OCCO4)n2)cc1 and give its measured inhibition.
5.58

Which inhibition is reported for this compound? O=C1Nc2ccc(-c3cccnc3)cc2C1=Cc1cc(Br)c(O)c(Br)c1
9.95

What does the data say about its inhibition? Entry: ON=C1CCc2cc(-c3nc(C4CCNCC4)[nH]c3-c3ccncc3)ccc21
1.37

Field request: inhibition | item: CS(=O)(=O)CCNCc1nc(-c2ccc3ncnc(Nc4ccc(OCc5cccc(C(F)(F)F)c5)cc4)c3c2)cs1
1.66

Endpoint output: inhibition of OCc1ccc(-c2nc(-c3ccccn3)c(-c3ccc4c(c3)OCO4)[nH]2)cc1 . Value?
1.02

Which inhibition value is on record for COc1cccc(-n2ncc3c(N/N=C/c4ccc(C)cc4)ncnc32)c1 ?
4.49

Give the measured inhibition of [O-][S+]1CCN(Cc2ccc(-c3ccc4ncnc(Nc5ccc(OCc6ccccc6)c(Cl)c5)c4c3)o2)CC1 .
2.86

Record request: inhibition value, item Cc1ccc2c(-c3ccnc(Nc4ccc5c(c4)OCCO5)n3)c(-c3ccc(C(F)(F)F)cc3)nn2n1
2.41

Please report the recorded inhibition for c1ccc(Nc2ncc(-c3ccccc3)o2)cc1 .
6.84

// query inhibition value for entry Cc1nc(-c2ccccc2)n2nc(NCCCN3CCOCC3)ncc12
2.63

Field request: inhibition | item: CC(C)c1ccc(Nc2nccc(-c3cnn4ncccc34)n2)cc1
4.27

What inhibition value was documented for this compound, COc1cc2ncnc(Nc3ccc(C)c(O)c3)c2cc1OC ?
34.5

# input compound: Nc1nccc(-c2c(-c3ccc(F)cc3)ncn2CCCN2CCOCC2)n1 ; wanted: its inhibition
5.61

Form field: reported inhibition of Cc1ccc2c(c1)/C(=N/Nc1ccc(S(N)(=O)=O)cc1)C(=O)N2
0.35

I have this compound here, CN(C)CCCn1c(-c2nonc2N)nc2cnccc21 , and I need its recorded inhibition.
1.97

Using the record for O=C(Nc1ccc(Oc2ccc3[nH]c(NC(=O)c4ccco4)nc3c2)cc1)Nc1cc(C(F)(F)F)ccc1F , report its inhibition.
37.4

Fill in the blank: the reported inhibition of C[C@@H](Oc1cc(-n2cnc3ccc(OC[C@@H](O)CO)cc32)sc1C(N)=O)c1ccccc1Cl is ____.
1.84

Please give the measured inhibition for this compound: COC(=O)Nc1nc2cc(Oc3ccc(NC(=O)Nc4cccc(Br)c4)cc3)ccc2[nH]1
15.3

Entry NS(=O)(=O)c1cccc(Nc2cc(-c3ccc(F)cc3)n[nH]2)c1 has what inhibition?
19.7

Look up inhibition: NC(=O)c1cccc(Nc2nccc(Nc3cccc(F)c3)n2)c1
57

Request the reported inhibition associated with N#Cc1c(NC(=O)c2ccccc2F)sc2c1CCCC2
-1.16

----------
Assign inhibition to each entry below.
Biological target: Tyrosine-protein kinase JAK1 (Homo sapiens) (UniProt P23458)
Sequence (P23458 whole entry): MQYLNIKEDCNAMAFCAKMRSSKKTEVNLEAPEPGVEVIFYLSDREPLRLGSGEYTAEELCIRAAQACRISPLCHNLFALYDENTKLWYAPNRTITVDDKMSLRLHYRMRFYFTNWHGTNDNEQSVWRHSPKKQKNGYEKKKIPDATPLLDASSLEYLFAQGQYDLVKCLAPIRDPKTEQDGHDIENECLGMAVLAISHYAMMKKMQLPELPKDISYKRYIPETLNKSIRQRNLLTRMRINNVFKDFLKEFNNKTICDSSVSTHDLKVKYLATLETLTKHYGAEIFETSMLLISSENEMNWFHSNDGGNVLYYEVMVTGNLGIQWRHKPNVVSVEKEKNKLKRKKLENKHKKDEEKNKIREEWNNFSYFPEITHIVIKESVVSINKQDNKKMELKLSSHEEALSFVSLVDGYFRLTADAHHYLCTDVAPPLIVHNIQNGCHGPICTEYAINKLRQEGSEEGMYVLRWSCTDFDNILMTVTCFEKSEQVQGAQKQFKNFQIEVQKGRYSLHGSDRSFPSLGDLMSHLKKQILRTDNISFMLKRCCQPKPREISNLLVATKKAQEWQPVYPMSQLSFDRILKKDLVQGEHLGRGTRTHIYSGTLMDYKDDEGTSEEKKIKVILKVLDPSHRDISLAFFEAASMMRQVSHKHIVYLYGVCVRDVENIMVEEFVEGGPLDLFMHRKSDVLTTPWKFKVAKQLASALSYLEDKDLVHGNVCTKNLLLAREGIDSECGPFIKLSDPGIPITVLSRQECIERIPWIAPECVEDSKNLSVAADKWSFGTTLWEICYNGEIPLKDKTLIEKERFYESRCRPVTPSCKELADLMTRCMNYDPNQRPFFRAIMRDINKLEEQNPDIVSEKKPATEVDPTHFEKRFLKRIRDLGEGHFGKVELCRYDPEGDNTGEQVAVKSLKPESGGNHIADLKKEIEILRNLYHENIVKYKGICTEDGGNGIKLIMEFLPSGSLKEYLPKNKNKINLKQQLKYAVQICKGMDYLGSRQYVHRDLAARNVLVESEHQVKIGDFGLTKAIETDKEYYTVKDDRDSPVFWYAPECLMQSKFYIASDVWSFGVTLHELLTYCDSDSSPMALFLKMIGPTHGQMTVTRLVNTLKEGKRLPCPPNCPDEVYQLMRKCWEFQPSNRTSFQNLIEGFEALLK
Conditions: at 0.1 µM
Description: GSK_PKIS: JAK1 mean inhibition at 0.1 uM [Nanosyn]
Write down the numeric answer in % and omit the unit.

Missing value: inhibition, Tyrosine-protein kinase JAK1 (Homo sapiens) (UniProt P23458), entry COC(=O)Nc1nc2cc(Oc3ccc(NC(=O)Nc4cccc(Br)c4)cc3)ccc2[nH]1 . Fill in?
5.36

Report inhibition for CCn1c(-c2nonc2N)nc2ccc(F)cc21 tested on Tyrosine-protein kinase JAK1 (Homo sapiens) (UniProt P23458).
5.5

What inhibition appears in the records for this compound with Tyrosine-protein kinase JAK1 (Homo sapiens) (UniProt P23458)? N#Cc1c(NC(=O)c2ccccc2F)sc2c1CCCC2
0.4

Param readout= inhibition; system= Tyrosine-protein kinase JAK1 (Homo sapiens) (UniProt P23458); entry= Nc1nccc(-c2c(-c3ccc(F)cc3)nn3cc(C(F)(F)F)ccc23)n1 ; returns value.
-0.26

Give the reported inhibition for NC(=O)c1cccc(Nc2nccc(Nc3cccc(F)c3)n2)c1 (system: Tyrosine-protein kinase JAK1 (Homo sapiens) (UniProt P23458)).
3.17

Return inhibition measured with Tyrosine-protein kinase JAK1 (Homo sapiens) (UniProt P23458) given this compound: O=C1Nc2ccccc2/C1=C/Nc1ccc2[nH]c(=O)[nH]c2c1
3.96

Given the entry Cc1ccc(O)cc1Nc1ccnc2ccc(S(C)(=O)=O)cc12 , what inhibition was observed with Tyrosine-protein kinase JAK1 (Homo sapiens) (UniProt P23458)?
3.67

API: value(readout=inhibition, system=Tyrosine-protein kinase JAK1 (Homo sapiens) (UniProt P23458)) for record Oc1cccc(-c2nc(-c3ccccc3)[nH]c2-c2ccncc2)c1
9.17

Please state recorded inhibition (tested on Tyrosine-protein kinase JAK1 (Homo sapiens) (UniProt P23458)) of Cc1cc(Cl)cc2c1NC(=O)C2=NNc1ccc(S(N)(=O)=O)cc1
2.03

Record NS(=O)(=O)c1ccc(NC=C2C(=O)Nc3ccc4ncsc4c32)cc1 : what is its inhibition with Tyrosine-protein kinase JAK1 (Homo sapiens) (UniProt P23458)?
9.37

Which measured inhibition belongs to COc1cccc(-n2ncc3c(N/N=C/c4ccc(C)cc4)ncnc32)c1 , tested on Tyrosine-protein kinase JAK1 (Homo sapiens) (UniProt P23458)?
5.68

Checklist item: inhibition tested on Tyrosine-protein kinase JAK1 (Homo sapiens) (UniProt P23458), entry Cc1ccc(Nc2ccnc(Nc3cccc(C(N)=O)c3)n2)cc1O , value?
5.16

Identify the measured inhibition of CC(C)c1ccc2c(c1)NC(=O)/C2=N/Nc1ccc(S(N)(=O)=O)cc1 for Tyrosine-protein kinase JAK1 (Homo sapiens) (UniProt P23458).
-0.53

GET /values?readout=inhibition&system=Tyrosine-protein kinase JAK1 (Homo sapiens) (UniProt P23458)&item= COc1cc(Nc2nccc(-c3cnn4ncccc34)n2)cc(OC)c1
4.49

API: value(readout= inhibition, system= Tyrosine-protein kinase JAK1 (Homo sapiens) (UniProt P23458), query= COc1cc2ncnc(Nc3ccc4c(cnn4Cc4ccccc4)c3)c2cc1OC )
4.18

State its inhibition on Tyrosine-protein kinase JAK1 (Homo sapiens) (UniProt P23458): COC(=O)c1cncc(/C=C/c2c(C)cc(O)cc2C)c1
2.46

Notebook: pull reported inhibition for Tyrosine-protein kinase JAK1 (Homo sapiens) (UniProt P23458), entry CCS(=O)(=O)c1ccc(OC)c(Nc2nccc(N(C)c3ccc4c(C)n[nH]c4c3)n2)c1
3.52

# get_value(readout= inhibition, system= Tyrosine-protein kinase JAK1 (Homo sapiens) (UniProt P23458)) for Nc1ccc(C#Cc2cncnc2Nc2ccc(OCc3cccc(F)c3)c(Cl)c2)cc1
0.18

Any idea what inhibition came out for ON=C1CCc2cc(-c3nc(C4CCNCC4)[nH]c3-c3ccncc3)ccc21 on Tyrosine-protein kinase JAK1 (Homo sapiens) (UniProt P23458)?
-0.79

What value of inhibition on Tyrosine-protein kinase JAK1 (Homo sapiens) (UniProt P23458) does O=C1Nc2ccc(-c3cccnc3)cc2C1=Cc1cc(Br)c(O)c(Br)c1 have?
2.38

Requested read-out inhibition, target or system Tyrosine-protein kinase JAK1 (Homo sapiens) (UniProt P23458), entry O=S(=O)(CCOCc1ccc(-c2ccc3ncnc(Nc4ccc(OCc5cccc(F)c5)c(Cl)c4)c3c2)o1)c1ccccc1
1.54

Lab request: please report inhibition under test system Tyrosine-protein kinase JAK1 (Homo sapiens) (UniProt P23458) for Nc1nccc(C#Cc2cncnc2Nc2ccc(OCc3cccc(F)c3)c(Cl)c2)n1
2.03
